Where these numbers come from: paper PMC6023986

biological target: UniProtKB Q63120; assay: Ussing chamber bidirectional transport, model validation for MRP2 (pravastatin substrate, MK571 inhibitor); format: in vitro ADME; parameters: intestinal segments including duodenum, jejunum, ileum, and colon from anesthetized rats were immediately removed by surgery; from tissue; host or cells: stripped rat intestine (jejunum and ileum in validation; jejunum for the emodin studies); details: rat, pH 6.5, rat jejunum, without inhibitor; read-out: Papp S-M, control
Sequence (Q63120 whole entry): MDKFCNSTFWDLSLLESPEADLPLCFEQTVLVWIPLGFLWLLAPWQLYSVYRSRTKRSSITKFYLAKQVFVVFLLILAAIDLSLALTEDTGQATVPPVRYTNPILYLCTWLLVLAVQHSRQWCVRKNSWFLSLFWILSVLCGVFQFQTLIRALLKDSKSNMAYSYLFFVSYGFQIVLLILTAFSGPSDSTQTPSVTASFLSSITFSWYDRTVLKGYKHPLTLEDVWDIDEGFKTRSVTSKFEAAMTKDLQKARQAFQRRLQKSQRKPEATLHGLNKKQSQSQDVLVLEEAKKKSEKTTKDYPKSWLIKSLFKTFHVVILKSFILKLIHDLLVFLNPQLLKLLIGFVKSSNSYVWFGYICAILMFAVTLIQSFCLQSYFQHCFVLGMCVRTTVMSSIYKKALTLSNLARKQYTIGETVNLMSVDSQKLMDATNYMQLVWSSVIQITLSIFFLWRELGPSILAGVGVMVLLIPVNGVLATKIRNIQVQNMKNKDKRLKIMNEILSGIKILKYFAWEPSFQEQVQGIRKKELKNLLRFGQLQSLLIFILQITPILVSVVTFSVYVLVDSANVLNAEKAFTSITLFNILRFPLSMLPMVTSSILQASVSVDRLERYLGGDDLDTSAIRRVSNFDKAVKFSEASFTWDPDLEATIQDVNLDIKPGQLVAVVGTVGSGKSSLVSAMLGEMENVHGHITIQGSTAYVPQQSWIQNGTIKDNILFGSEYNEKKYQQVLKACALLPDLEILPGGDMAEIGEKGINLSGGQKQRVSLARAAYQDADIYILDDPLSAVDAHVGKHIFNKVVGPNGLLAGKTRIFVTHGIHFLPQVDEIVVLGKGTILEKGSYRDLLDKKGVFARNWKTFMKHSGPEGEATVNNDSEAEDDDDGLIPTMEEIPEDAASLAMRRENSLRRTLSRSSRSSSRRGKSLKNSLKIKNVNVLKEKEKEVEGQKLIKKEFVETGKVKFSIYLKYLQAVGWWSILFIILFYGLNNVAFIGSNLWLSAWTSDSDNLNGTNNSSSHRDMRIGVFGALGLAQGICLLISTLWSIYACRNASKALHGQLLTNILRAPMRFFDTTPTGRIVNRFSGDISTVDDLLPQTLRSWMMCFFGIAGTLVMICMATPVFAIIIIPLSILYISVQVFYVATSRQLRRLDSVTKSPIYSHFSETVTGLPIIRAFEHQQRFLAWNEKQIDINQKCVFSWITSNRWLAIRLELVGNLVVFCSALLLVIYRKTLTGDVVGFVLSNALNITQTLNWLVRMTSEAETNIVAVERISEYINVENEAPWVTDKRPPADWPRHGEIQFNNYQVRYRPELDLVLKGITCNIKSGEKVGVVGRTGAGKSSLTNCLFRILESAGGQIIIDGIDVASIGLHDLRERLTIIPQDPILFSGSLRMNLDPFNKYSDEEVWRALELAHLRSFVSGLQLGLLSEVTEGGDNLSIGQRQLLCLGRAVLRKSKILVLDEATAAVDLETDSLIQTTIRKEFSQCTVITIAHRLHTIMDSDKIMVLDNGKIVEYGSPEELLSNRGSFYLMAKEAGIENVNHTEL
measure name: Papp (×10⁻⁶ cm/s)
Value expressed in ×10⁻⁶ cm/s; do not type the unit.

Query: Papp; subject: CC[C@H](C)C(=O)O[C@H]1C[C@H](O)C=C2C=C[C@H](C)[C@H](CC[C@@H](O)C[C@@H](O)CC(=O)O)[C@H]21
496

====

system: P-gp; test: in vitro; conditions: rat, pH 6.5, with verapamil 440 μM, mucosal side, Papp S-M, with inhibitor, rat colon, with verapamil 440 μM on mucosal side
measure name: Papp (×10⁻⁶ cm/s)
Value expressed in ×10⁻⁶ cm/s; do not type the unit.

Query: Papp; subject: C[C@H]1O[C@@H](O[C@H]2[C@@H](O)C[C@H](O[C@H]3[C@@H](O)C[C@H](O[C@H]4CC[C@@]5(C)[C@H](CC[C@@H]6[C@@H]5C[C@@H](O)[C@]5(C)[C@@H](C7=CC(=O)OC7)CC[C@]65O)C4)O[C@@H]3C)O[C@@H]2C)C[C@H](O)[C@@H]1O
191

====

system: P-gp; experiment: in vitro; settings: rat, pH 6.5, Papp S-M, control, rat jejunum, without inhibitor
measure name: Papp (×10⁻⁶ cm/s)
Value expressed in ×10⁻⁶ cm/s; do not type the unit.

Query: Papp; subject: C[C@H]1O[C@@H](O[C@H]2[C@@H](O)C[C@H](O[C@H]3[C@@H](O)C[C@H](O[C@H]4CC[C@@]5(C)[C@H](CC[C@@H]6[C@@H]5C[C@@H](O)[C@]5(C)[C@@H](C7=CC(=O)OC7)CC[C@]65O)C4)O[C@@H]3C)O[C@@H]2C)C[C@H](O)[C@@H]1O [Digoxin]
270

====

target: UniProt:Q63120; experiment: Ussing chamber bidirectional transport, model validation for MRP2 (pravastatin substrate, MK571 inhibitor); type: in vitro ADME; set-up: intestinal segments including duodenum, jejunum, ileum, and colon from anesthetized rats were immediately removed by surgery; from tissue; host or cells: stripped rat intestine (jejunum and ileum in validation; jejunum for the emodin studies); settings: rat, pH 6.5, with MK571 186 μM, mucosal side, rat ileum, with MK571 186 μM on mucosal side; read-out: Papp M-S, with inhibitor
measure name: Papp
Please answer using a numeric value trailed by its unit.

Query: Papp; subject: CC[C@H](C)C(=O)O[C@H]1C[C@H](O)C=C2C=C[C@H](C)[C@H](CC[C@@H](O)C[C@@H](O)CC(=O)O)[C@H]21
124 ×10⁻⁶ cm/s

====

tested on: P-gp; assay: in vitro; settings: rat, pH 6.5, Papp M-S, control, rat duodenum, without inhibitor
measure name: Papp (nm/s)
Value expressed in nm/s; do not type the unit.

Query: Papp; subject: C[C@H]1O[C@@H](O[C@H]2[C@@H](O)C[C@H](O[C@H]3[C@@H](O)C[C@H](O[C@H]4CC[C@@]5(C)[C@H](CC[C@@H]6[C@@H]5C[C@@H](O)[C@]5(C)[C@@H](C7=CC(=O)OC7)CC[C@]65O)C4)O[C@@H]3C)O[C@@H]2C)C[C@H](O)[C@@H]1O
725

====

target: MRP3 (Rattus norvegicus); construct: intestinal segments including duodenum, jejunum, ileum, and colon from anesthetized rats were immediately removed by surgery; from tissue; host or cells: stripped rat intestine (jejunum and ileum in validation; jejunum for the emodin studies); experiment: Ussing chamber bidirectional transport, model validation for MRP3 (teniposide substrate, benzbromarone inhibitor); assay type: in vitro ADME; conditions: rat, pH 6.5, with benzbromarone 470 μM, mucosal side, rat colon, with benzbromarone 470 μM on mucosal side; read-out: Papp S-M, with inhibitor
measure name: Papp (×10⁻⁶ cm/s)
Value expressed in ×10⁻⁶ cm/s; do not type the unit.

MRP3 (Rattus norvegicus) / Papp / COc1cc([C@@H]2c3cc4c(cc3[C@@H](O[C@@H]3O[C@@H]5CO[C@@H](c6cccs6)O[C@H]5[C@H](O)[C@H]3O)[C@H]3COC(=O)[C@H]23)OCO4)cc(OC)c1O [Teniposide] : value?
8.3

====

test system: P-gp; test: Influence of emodin on P-gp function: digoxin bidirectional transport in the presence of emodin (Ussing chamber); assay type: in vitro ADME; conditions: rat, pH 6.5, with emodin 185 μM on mucosal side, digoxin 25 μM, rat jejunum, emodin 185 μM on mucosal side; read-out: Papp S-M in the presence of emodin
measure name: Papp at 25 μM (×10⁻⁶ cm/s)
Value expressed in ×10⁻⁶ cm/s; do not type the unit.

Query: Papp at 25 μM; subject: C[C@H]1O[C@@H](O[C@H]2[C@@H](O)C[C@H](O[C@H]3[C@@H](O)C[C@H](O[C@H]4CC[C@@]5(C)[C@H](CC[C@@H]6[C@@H]5C[C@@H](O)[C@]5(C)[C@@H](C7=CC(=O)OC7)CC[C@]65O)C4)O[C@@H]3C)O[C@@H]2C)C[C@H](O)[C@@H]1O [Digoxin]
257

====

molecular target: MRP3 (Rattus norvegicus); construct: intestinal segments including duodenum, jejunum, ileum, and colon from anesthetized rats were immediately removed by surgery; from tissue; host or cells: stripped rat intestine (jejunum and ileum in validation; jejunum for the emodin studies); test: Ussing chamber bidirectional transport, model validation for MRP3 (teniposide substrate, benzbromarone inhibitor); format: in vitro ADME; settings: rat, pH 6.5, rat jejunum, without inhibitor; read-out: Papp M-S, control
measure name: Papp
Please answer using a numeric value trailed by its unit.

Query: Papp; subject: COc1cc([C@@H]2c3cc4c(cc3[C@@H](O[C@@H]3O[C@@H]5CO[C@@H](c6cccs6)O[C@H]5[C@H](O)[C@H]3O)[C@H]3COC(=O)[C@H]23)OCO4)cc(OC)c1O [Teniposide]
14 ×10⁻⁶ cm/s

====

system: P-gp; experiment: in vitro; settings: rat, pH 6.5, Papp S-M, control, rat ileum, without inhibitor
measure name: Papp (×10⁻⁶ cm/s)
Value expressed in ×10⁻⁶ cm/s; do not type the unit.

Query: Papp; subject: C[C@H]1O[C@@H](O[C@H]2[C@@H](O)C[C@H](O[C@H]3[C@@H](O)C[C@H](O[C@H]4CC[C@@]5(C)[C@H](CC[C@@H]6[C@@H]5C[C@@H](O)[C@]5(C)[C@@H](C7=CC(=O)OC7)CC[C@]65O)C4)O[C@@H]3C)O[C@@H]2C)C[C@H](O)[C@@H]1O
228

====

tested on: P-gp; assay: in vitro; details: rat, pH 6.5, Papp S-M, control, rat colon, without inhibitor
measure name: Papp (×10⁻⁶ cm/s)
Value expressed in ×10⁻⁶ cm/s; do not type the unit.

Query: Papp; subject: C[C@H]1O[C@@H](O[C@H]2[C@@H](O)C[C@H](O[C@H]3[C@@H](O)C[C@H](O[C@H]4CC[C@@]5(C)[C@H](CC[C@@H]6[C@@H]5C[C@@H](O)[C@]5(C)[C@@H](C7=CC(=O)OC7)CC[C@]65O)C4)O[C@@H]3C)O[C@@H]2C)C[C@H](O)[C@@H]1O
137

====

system: P-gp; assay: in vitro; settings: rat, pH 6.5, Papp M-S, control, rat jejunum, without inhibitor
measure name: Papp (×10⁻⁶ cm/s)
Value expressed in ×10⁻⁶ cm/s; do not type the unit.

P-gp / Papp / C[C@H]1O[C@@H](O[C@H]2[C@@H](O)C[C@H](O[C@H]3[C@@H](O)C[C@H](O[C@H]4CC[C@@]5(C)[C@H](CC[C@@H]6[C@@H]5C[C@@H](O)[C@]5(C)[C@@H](C7=CC(=O)OC7)CC[C@]65O)C4)O[C@@H]3C)O[C@@H]2C)C[C@H](O)[C@@H]1O [Digoxin] : value?
57.8

====

target: MRP3 (Rattus norvegicus, UniProt O88563); construct: intestinal segments including duodenum, jejunum, ileum, and colon from anesthetized rats were immediately removed by surgery; from tissue; host or cells: stripped rat intestine (jejunum and ileum in validation; jejunum for the emodin studies); test: Ussing chamber bidirectional transport, model validation for MRP3 (teniposide substrate, benzbromarone inhibitor); type: in vitro ADME; conditions: rat, pH 6.5, rat ileum, without inhibitor; read-out: Papp S-M, control
Sequence (O88563 whole entry): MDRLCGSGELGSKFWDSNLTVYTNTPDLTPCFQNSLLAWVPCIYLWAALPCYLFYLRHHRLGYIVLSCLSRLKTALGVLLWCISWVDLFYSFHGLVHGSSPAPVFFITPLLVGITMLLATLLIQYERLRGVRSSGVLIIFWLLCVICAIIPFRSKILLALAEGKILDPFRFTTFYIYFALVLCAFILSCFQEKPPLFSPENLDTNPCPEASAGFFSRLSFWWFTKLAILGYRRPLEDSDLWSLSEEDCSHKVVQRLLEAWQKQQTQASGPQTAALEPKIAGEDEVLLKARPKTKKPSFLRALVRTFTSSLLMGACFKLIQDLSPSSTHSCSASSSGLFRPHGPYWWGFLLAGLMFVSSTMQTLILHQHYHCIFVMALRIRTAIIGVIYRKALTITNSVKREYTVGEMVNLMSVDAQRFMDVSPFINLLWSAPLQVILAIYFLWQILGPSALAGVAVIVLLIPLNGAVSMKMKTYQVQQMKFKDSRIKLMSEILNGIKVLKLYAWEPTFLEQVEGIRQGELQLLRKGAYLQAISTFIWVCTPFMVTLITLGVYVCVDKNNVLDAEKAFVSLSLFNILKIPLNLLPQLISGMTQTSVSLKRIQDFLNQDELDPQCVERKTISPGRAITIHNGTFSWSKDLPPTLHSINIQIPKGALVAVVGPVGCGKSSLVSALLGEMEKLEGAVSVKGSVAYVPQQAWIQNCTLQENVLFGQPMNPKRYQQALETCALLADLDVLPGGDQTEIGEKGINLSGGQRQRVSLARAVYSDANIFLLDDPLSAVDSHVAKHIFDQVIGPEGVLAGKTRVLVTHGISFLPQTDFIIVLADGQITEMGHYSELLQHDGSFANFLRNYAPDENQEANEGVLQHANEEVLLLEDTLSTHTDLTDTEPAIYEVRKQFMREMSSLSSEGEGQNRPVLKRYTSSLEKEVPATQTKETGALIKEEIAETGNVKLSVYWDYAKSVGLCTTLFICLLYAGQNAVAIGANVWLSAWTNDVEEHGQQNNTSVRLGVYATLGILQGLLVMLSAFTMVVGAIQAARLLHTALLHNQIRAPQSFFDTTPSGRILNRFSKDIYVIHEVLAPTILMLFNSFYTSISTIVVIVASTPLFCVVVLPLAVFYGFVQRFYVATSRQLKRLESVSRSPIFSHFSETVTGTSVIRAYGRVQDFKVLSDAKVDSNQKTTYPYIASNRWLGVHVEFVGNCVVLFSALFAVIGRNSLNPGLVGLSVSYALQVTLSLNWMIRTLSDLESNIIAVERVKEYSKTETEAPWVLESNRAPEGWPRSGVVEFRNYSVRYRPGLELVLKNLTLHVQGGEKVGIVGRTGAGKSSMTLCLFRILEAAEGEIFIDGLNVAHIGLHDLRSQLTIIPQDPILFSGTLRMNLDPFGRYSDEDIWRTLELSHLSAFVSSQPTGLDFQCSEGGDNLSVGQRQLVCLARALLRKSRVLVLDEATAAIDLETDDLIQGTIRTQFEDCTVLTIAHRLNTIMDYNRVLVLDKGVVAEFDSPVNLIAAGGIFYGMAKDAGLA
measure name: Papp (×10⁻⁶ cm/s)
Value expressed in ×10⁻⁶ cm/s; do not type the unit.

Query: Papp; subject: COc1cc([C@@H]2c3cc4c(cc3[C@@H](O[C@@H]3O[C@@H]5CO[C@@H](c6cccs6)O[C@H]5[C@H](O)[C@H]3O)[C@H]3COC(=O)[C@H]23)OCO4)cc(OC)c1O [Teniposide]
24.5

====

System: P-gp
Experiment: Influence of emodin on P-gp function: digoxin bidirectional transport in the presence of emodin (Ussing chamber)
Type: in vitro ADME
Settings: rat, pH 6.5, digoxin 25 μM, rat jejunum, without emodin; read-out: Papp M-S, control
Experimental: The four intestinal segments including duodenum, jejunum, ileum, and colon from anesthetized rats were immediately removed by surgery and washed with KRB solution. Each section of the intestinal segments was then placed in cold (on ice), bubbled (O2:CO2 95:5) KRB buffer. […] In this study, the effects of the three efflux transporters on emodin intestinal absorption were investigated. […] Changes of the bidirectional transport characteristic were measured before and after adding emodin to the mucosal side. […]
measure name: Papp at 25 μM

Query: Papp at 25 μM; subject: C[C@H]1O[C@@H](O[C@H]2[C@@H](O)C[C@H](O[C@H]3[C@@H](O)C[C@H](O[C@H]4CC[C@@]5(C)[C@H](CC[C@@H]6[C@@H]5C[C@@H](O)[C@]5(C)[C@@H](C7=CC(=O)OC7)CC[C@]65O)C4)O[C@@H]3C)O[C@@H]2C)C[C@H](O)[C@@H]1O
91.6 ×10⁻⁶ cm/s
